Quick list: binding affinity ratio (IC50 of standard peptide / IC50 of test peptide) per entry.
- ASSAYED TARGET: HLA-A*1101 (human)
- METHOD NOTES: competition with a radiolabelled standard peptide on purified HLA-A*1101, gel filtration
Please state the value as a number alone, without comment.

>  <BINDER>
YGKVFRGNK (modifications not checked) [PSM peptide … (position 205, 9 amino acids)]

>  <RECORDED RESULT>
0.0002

$$$$
>  <BINDER>
YGIHKQKEK (modifications not checked) [PAP peptide … (position 247, 9 amino acids)]

>  <RECORDED RESULT>
0.0002

$$$$
>  <BINDER>
WATEDTMTK (modifications not checked) [PAP peptide … (position 226, 9 amino acids)]

>  <RECORDED RESULT>
0.0002

$$$$
>  <BINDER>
VLTAAHCIR (modifications not checked) [PSA peptide … (position 56, 9 amino acids)]

>  <RECORDED RESULT>
0.0005

$$$$

Measured binding affinity ratio (IC50 of standard peptide / IC50 of test peptide), YDAQKLLEK (modifications not checked) [PSM peptide … (position 300, 9 amino acids)] : 0.0002
